Test system: Fusarium fujikuroi
assay.info: Antifungal activity against Fusarium fujikuroi at 50 ug/ml by poisoned food technique
Format: functional
Could you please report measured Activity for the items listed next?
Answer format: numeric, % implied, no suffix.

What value of Activity has been reported for the following compound? `COc1cc(C(=O)Oc2cc(C)nc(C(C)C)n2)cc(OC)c1OC`
20

What value of Activity has been reported for the following compound? `Cc1cc(Nc2ccccc2)nc(C(C)C)n1`
0

What value of Activity has been reported for the following compound? `COc1cc(OC)nc(NCc2cnc(Cl)s2)n1`
26.7

What value of Activity has been reported for the following compound? `COC(=O)Nc1nc2ccccc2[nH]1`
60

What value of Activity has been reported for the following compound? `Cc1cc(Nc2ccc(OC(F)(F)F)cc2)nc(C(C)C)n1`
40

What value of Activity has been reported for the following compound? `COc1cc(OC)nc(NCc2ccc(Cl)nc2)n1`
20

What value of Activity has been reported for the following compound? `Cc1cc(OC(=O)c2ccc(Cl)cc2)nc(C(C)C)n1`
53.3

What value of Activity has been reported for the following compound? `Cc1cc(OCc2cnc(Cl)s2)nc(C(C)C)n1`
20

What value of Activity has been reported for the following compound? `COc1ccc(C(=CC(=O)N2CCOCC2)c2ccc(Cl)cc2)cc1OC`
20

What value of Activity has been reported for the following compound? `Cc1cc(OC(=O)N2CCOCC2)nc(C(C)C)n1`
6.7
